# Tested on: kinases
# MEASUREMENT_NOTES: KINOMEscan kinase binding assay (Eurofins/DiscoveRx), % Ctrl
# CONDITIONS_USED: 1 μM; FLT3(ITD, D835V)
QUANTITY_NAME: % Ctrl, FLT3(ITD, D835V) (% Ctrl)
Give the value, in units of % Ctrl, as a plain number.

Sample answers from the record:
| MOLECULE | STUDY_SYSTEM | U | % Ctrl, FLT3(ITD, D835V) |
| --- | --- | --- | --- |
| Cc1cc2c([nH]1)/C=C1\C(=O)Nc3cc(Cl)c(cc31)OCCO[C@@H](C(=O)N[C@@H]1CCNC1)CN(C)C2=O | kinases | % Ctrl | 2.8 |
| Cc1cc2c([nH]1)/C=C1\C(=O)Nc3ccc(cc31)-c1cnn(C)c1COCCN(C)C2=O | kinases | % Ctrl | 0 |
| Cc1cc2c([nH]1)/C=C1\C(=O)Nc3ccc(cc31)CN(C)C(=O)COCCNC2=O | kinases | % Ctrl | 0.45 |
| Cc1cc2c([nH]1)/C=C1\C(=O)Nc3cc(Cl)c(cc31)OCCOCCN(C)C2=O | kinases | % Ctrl | 0 |
| Cc1cc2c([nH]1)/C=C1\C(=O)Nc3ccc(cc31)-c1ccnn1CCOCCN(C)C2=O | kinases | % Ctrl | 0.8 |

q: State, in one line, measured % Ctrl, FLT3(ITD, D835V) of "Cc1cc2c([nH]1)/C=C1\C(=O)Nc3ccc(cc31)O[C@@H](C)COCCN(C)C2=O"
a: 8.3

q: State, in one line, measured % Ctrl, FLT3(ITD, D835V) of "Cc1cc2c([nH]1)/C=C1\C(=O)Nc3ccc(cc31)-c1c(C)n[nH]c1CNCCN(C)C2=O"
a: 0

q: State, in one line, measured % Ctrl, FLT3(ITD, D835V) of "Cc1cc2c([nH]1)/C=C1\C(=O)Nc3cc(Cl)c(cc31)OCCO[C@@H](C(=O)NC1CNC1)CN(C)C2=O"
a: 2.8

###

# STUDY_SYSTEM: kinases (Homo sapiens, UniProt P10721)
# Construct: purchased Eurofins/DiscoveRx; host or cells: E. coli BL21-derived host (T7 phage display) for most kinases; HEK-293 for the rest
# Sequence (P10721 26-976): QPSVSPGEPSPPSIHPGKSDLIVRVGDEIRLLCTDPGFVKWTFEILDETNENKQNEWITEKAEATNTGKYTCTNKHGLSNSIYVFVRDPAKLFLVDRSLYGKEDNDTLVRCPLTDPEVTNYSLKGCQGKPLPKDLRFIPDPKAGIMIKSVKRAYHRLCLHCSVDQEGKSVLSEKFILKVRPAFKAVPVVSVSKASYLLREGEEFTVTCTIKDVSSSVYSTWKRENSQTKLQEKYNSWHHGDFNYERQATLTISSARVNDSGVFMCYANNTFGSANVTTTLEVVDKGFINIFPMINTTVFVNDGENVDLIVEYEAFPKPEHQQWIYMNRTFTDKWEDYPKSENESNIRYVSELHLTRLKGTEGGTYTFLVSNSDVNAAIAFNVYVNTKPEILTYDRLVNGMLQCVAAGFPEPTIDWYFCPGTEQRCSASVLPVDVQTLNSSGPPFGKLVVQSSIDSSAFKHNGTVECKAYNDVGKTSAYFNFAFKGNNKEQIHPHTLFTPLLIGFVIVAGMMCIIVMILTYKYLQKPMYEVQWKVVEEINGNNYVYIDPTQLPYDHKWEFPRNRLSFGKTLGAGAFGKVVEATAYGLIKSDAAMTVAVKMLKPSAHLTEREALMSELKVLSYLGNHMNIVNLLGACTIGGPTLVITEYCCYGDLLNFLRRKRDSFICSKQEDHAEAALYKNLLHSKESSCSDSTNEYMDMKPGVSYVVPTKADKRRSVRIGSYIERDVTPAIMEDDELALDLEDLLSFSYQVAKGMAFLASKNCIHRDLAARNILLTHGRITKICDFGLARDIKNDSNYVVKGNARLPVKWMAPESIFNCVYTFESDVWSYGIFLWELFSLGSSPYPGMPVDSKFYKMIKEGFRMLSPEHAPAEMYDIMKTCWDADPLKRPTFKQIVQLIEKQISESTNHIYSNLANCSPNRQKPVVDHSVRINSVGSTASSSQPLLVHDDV
# MEASUREMENT_NOTES: KINOMEscan kinase binding assay (Eurofins/DiscoveRx), % Ctrl
# CONDITIONS_USED: 1 μM; KIT
Quick reference: % Ctrl, KIT of the listed items.
Give the value, in units of % Ctrl, as a plain number.

q: State, in one line, measured % Ctrl, KIT of "Cc1cc2c([nH]1)/C=C1\C(=O)Nc3cc(Cl)c(cc31)OCCO[C@@H](C(=O)N(C)C)CN(C)C2=O"
a: 90

###

# STUDY_SYSTEM: kinases (Homo sapiens, UniProt P10721, V559D/V654A)
# Construct: purchased Eurofins/DiscoveRx; host or cells: E. coli BL21-derived host (T7 phage display) for most kinases; HEK-293 for the rest
# Sequence (P10721 26-976 V559D/V654A): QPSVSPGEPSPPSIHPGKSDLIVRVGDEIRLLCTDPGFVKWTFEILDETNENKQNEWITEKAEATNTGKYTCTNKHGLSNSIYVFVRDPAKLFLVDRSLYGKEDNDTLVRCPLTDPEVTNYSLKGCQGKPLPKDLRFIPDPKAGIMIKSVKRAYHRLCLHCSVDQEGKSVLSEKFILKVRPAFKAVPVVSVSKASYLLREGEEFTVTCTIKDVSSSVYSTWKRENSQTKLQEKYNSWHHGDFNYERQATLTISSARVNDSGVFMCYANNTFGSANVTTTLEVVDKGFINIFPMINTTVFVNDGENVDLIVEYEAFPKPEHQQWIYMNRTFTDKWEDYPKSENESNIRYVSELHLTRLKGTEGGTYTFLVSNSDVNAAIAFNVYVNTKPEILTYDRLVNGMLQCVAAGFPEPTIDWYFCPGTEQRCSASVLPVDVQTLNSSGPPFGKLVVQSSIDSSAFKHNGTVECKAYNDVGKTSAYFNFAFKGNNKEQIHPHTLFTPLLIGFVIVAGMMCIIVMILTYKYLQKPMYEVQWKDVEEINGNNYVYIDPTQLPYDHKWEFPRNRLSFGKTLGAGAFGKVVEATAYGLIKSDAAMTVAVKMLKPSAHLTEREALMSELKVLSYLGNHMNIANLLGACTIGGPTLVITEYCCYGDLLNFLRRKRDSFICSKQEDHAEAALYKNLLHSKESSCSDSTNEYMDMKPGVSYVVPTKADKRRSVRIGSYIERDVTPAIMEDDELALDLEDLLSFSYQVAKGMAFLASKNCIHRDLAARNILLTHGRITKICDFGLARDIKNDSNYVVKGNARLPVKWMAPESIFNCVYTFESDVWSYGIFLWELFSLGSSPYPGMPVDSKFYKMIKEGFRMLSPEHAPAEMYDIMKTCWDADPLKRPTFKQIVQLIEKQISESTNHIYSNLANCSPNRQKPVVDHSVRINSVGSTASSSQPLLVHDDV
# MEASUREMENT_NOTES: KINOMEscan kinase binding assay (Eurofins/DiscoveRx), % Ctrl
# CONDITIONS_USED: 1 μM; KIT(V559D, V654A)
// returns Not satisfied unless % Ctrl, KIT(V559D, V654A) is strictly below 70 % Ctrl, in which case Satisfied

| COMPOUND | STUDY_SYSTEM | CLASS |
| --- | --- | --- |
| Cc1cc2c([nH]1)/C=C1\C(=O)Nc3ccc(cc31)-c1ccnn1CCNCCNC2=O [Ex. 43] | kinases (Homo sapiens, UniProt P10721, V559D/V654A) | Not satisfied |
| Cc1cc2c([nH]1)/C=C1\C(=O)Nc3cnc(cc31)-c1cnn(C)c1COCCNC2=O [Ex.123] | kinases (Homo sapiens, UniProt P10721, V559D/V654A) | Not satisfied |
| Cc1cc2c([nH]1)/C=C1\C(=O)Nc3ccc(cc31)-c1cnn(C)c1CNCCN(C)C2=O [Ex. 125] | kinases (Homo sapiens, UniProt P10721, V559D/V654A) | Satisfied |

q: hey, is % Ctrl, KIT(V559D, V654A) for Cc1cc2c([nH]1)/C=C1\C(=O)Nc3ccc(cc31)O[C@@H](C)COCCN(C)C2=O [Ex. 92] lower than 70 % Ctrl or not?
a: Satisfied

q: hey, is % Ctrl, KIT(V559D, V654A) for Cc1cc2c([nH]1)/C=C1\C(=O)Nc3cc(Cl)c(cc31)OCCO[C@@H](C(=O)N[C@@H]1CCNC1)CN(C)C2=O [Ex. 136] lower than 70 % Ctrl or not?
a: Satisfied
